Test: log P by HPLC (OECD Guideline 117), method [a] acidic range
Format: physicochemical
Conditions: HPLC, method [a] acidic range
parameter: logP[a]
The response must contain the number and no unit.

Field logP[a] (entry Cc1cc(F)c(-n2nc(Br)n(C3CC3)c2=O)cc1[S+]([O-])CC(F)(F)F (racemic) ) reads 2.39

Field logP[a] (entry COC1=CC(=O)N(c2ccc(C(F)(F)F)c([S+]([O-])CC(F)(F)F)c2)C1 (stereo not drawn) ) reads 2.61

Field logP[a] (entry Cc1cc(F)c(-n2nc(C)n(N(C)C)c2=O)cc1[S+]([O-])CC(F)(F)F (stereo not drawn) ) reads 2.09

Field logP[a] (entry COc1nn(-c2cc([S+]([O-])CC(F)(F)F)c(Br)cc2F)c(=O)n1C1CC1 (stereo not drawn) ) reads 2.57

Field logP[a] (entry Cc1cc(F)c(-n2nc(SCC(F)F)n(C3CC3)c2=O)cc1[S+]([O-])CC(F)(F)F (stereo not drawn) ) reads 2.73

Field logP[a] (entry Cc1cc(C)c([S+]([O-])CC(F)(F)F)cc1-n1ncn(Cc2ccccc2)c1=O (stereo not drawn) ) reads 2.50

Field logP[a] (entry COc1nn(-c2ccc(C#N)c([S+]([O-])CC(F)(F)F)c2)c(=O)n1C1CC1 (stereo not drawn) ) reads 2.47

Field logP[a] (entry `CNn1c(C2CC2)nn(-c2cc(SCC(F)(F)F)c(C)cc2F)c1=O` ) reads 3.15

Field logP[a] (entry `Cc1cc(F)c(N2C(=O)C=C(Br)C2=O)cc1SCC(F)(F)F` ) reads 3.91
